Where these numbers come from: ChEMBL document CHEMBL4665889

CLhep predicted at 1 µM values, listed per item
Test: Clearance in Wistar rat hepatocytes at 1 uM incubated up to 90 mins by LC-MS/MS analysis
Type: ADME, cell-based, Hepatocyte
Details: Wistar
A number alone suffices; assume mL/min/kg.

compound: COc1cc(C(=O)N2CC(C)C(O)CC2C)cc2nc(NCc3cccc(Cl)c3)oc12 (stereo not given)
unit.annotation: mL/min/kg
CLhep predicted at 1 µM: 56.7
//
compound: COc1cc(C(=O)N2CC[C@H](O)[C@@H](C)C2)cc2nc(NCc3cccc(Cl)c3)oc12
unit.annotation: mL/min/kg
CLhep predicted at 1 µM: 36.7
//
compound: COc1cc(C(=O)N2CC(C)(CCO)OC[C@H]2C)cc2nc(NCc3cc(Cl)ccn3)oc12 (stereo not given in full)
unit.annotation: mL/min/kg
CLhep predicted at 1 µM: 41.7
//
compound: COc1cc(C(=O)N2C[C@H](C)OC[C@@H]2CCO)cc2nc(N[C@H](C)c3cccc(Cl)c3)oc12
unit.annotation: mL/min/kg
CLhep predicted at 1 µM: 45

The record that follows has no CLhep predicted at 1 µM shown yet.
Query string: Requested field: CLhep predicted at 1 µM. Item: CC[C@@H]1CO[C@@](C)(CCO)CN1C(=O)c1cc(OC)c2oc(N[C@H](C)c3cccc(Cl)c3)nc2c1
Result string: 65

----------
Assay: Volume of distribution at steady state in Wistar Hannover rat at 0.3 to 0.5 mg/kg, iv by LC-MS/MS analysis
Format: ADME, organism-based
Conditions: in vivo, dose 0.3-0.5 mg/kg, time <=24 hrs, read-out: Vdss
This section presents compounds with their documented Vd values.
Entry rule: numbers only, all in L/kg.

See these solved cases before continuing.
compound: COc1cc(C(=O)N2CC(C)(CCO)OC[C@H]2C)cc2nc(NCc3cc(Cl)ccn3)oc12 (some centres undefined)
Vd / L/kg: 2
//
compound: COc1cc(C(=O)N2CC(C)OCC2CCO)cc2nc(NCc3cc(Cl)ccn3)oc12 (centres undefined)
Vd / L/kg: 1.3
//
compound: COc1cc(C(=O)N2CC(C)OCC2CO)cc2nc(N[C@H](C)c3cccc(Cl)c3)oc12 (some centres undefined)
Vd / L/kg: 2.7

Then there is this compound:
Query string: Reported Vd for COc1cc(C(=O)N2CC(C)(CCO)OC[C@H]2C)cn2nc(NCc3cccc(Cl)c3)nc12 (some centres undefined) : what is it?
Result string: 2.2

----------
Assay: Clearance in Wistar rat hepatocytes at 1 uM incubated up to 90 mins by LC-MS/MS analysis
Assay type: ADME, cell-based, Hepatocyte
Settings: Wistar
Reported CLhep predicted at 1 µM values for a set of molecules
Unit mL/min/kg implied. Number only.

Look over these answered cases.
molecule: COc1cc(C(=O)N2CCC(O)C(C)C2)cc2nc(NCc3cncc(Cl)c3)oc12 (racemic)
CLhep predicted at 1 µM [mL/min/kg]: 40
--
molecule: COc1cc(C(=O)N2CCC(O)C(C)C2)cc2nc(NCc3cccc(Cl)c3)oc12 (racemic)
CLhep predicted at 1 µM [mL/min/kg]: 45

Query string: Query: CLhep predicted at 1 µM; subject: COc1cc(C(=O)N2CC(C)OCC2C2CC(O)C2)cc2nc(N[C@H](CF)c3cccc(Cl)c3)oc12 (stereo not given in full)
Result string: 56.7

Query string: Same again, this time with COc1cc(C(=O)N2CC[C@@H](O)[C@H](C)C2)cc2nc(NCc3cccc(Cl)c3)oc12
Result string: 38.3

Query string: And then COc1cc(C(=O)N2CC(C)OCC2C2CC(O)C2)cc2nc(NCc3cc(Cl)ccn3)oc12 (stereo not given) , what is it?
Result string: 45

----------
Assay: Clearance in Wistar rat hepatocytes at 1 uM incubated up to 90 mins by LC-MS/MS analysis
Assay type: ADME, cell-based, Hepatocyte
Details: Wistar
result.type: CLhep predicted at 1 µM (mL/min/kg)
Express your answer in mL/min/kg, writing the number without its unit.

Illustrative cases are given below, each with its answer.
molecule: COc1cc(C(=O)N2CC(C)(CCO)OC[C@H]2C)cc2nc(N[C@H](C)c3cccc(Cl)c3)oc12 (stereo partly drawn)
CLhep predicted at 1 µM / mL/min/kg: 58.3
--
molecule: CCC1CC(O)C(C)CN1C(=O)c1cc(OC)c2oc(NCc3cccc(Cl)c3)nc2c1 (racemic)
CLhep predicted at 1 µM / mL/min/kg: 61.7

Alright, here's another molecule for you.
Query string: What value of CLhep predicted at 1 µM has been reported for the following molecule? COc1cc(C(=O)N2CCCC2(C)C)cc2nc(NCc3cccc(Cl)c3)oc12
Result string: 58.3
